System: GST-tagged Cn
Test: PEPperPRINT peptide microarray binding assay with GST-tagged Cn
Conditions: GST-tagged Cn, mean over the spots on the chip (two locations)
From the text: We then estimated in-silico the binding strength of the various peptides to Cn by template-based docking followed by flexible backbone refinement using Modeller and PepCrawler (Figs 4 and S4). […] Fig 4 Medium-throughput filtering by structural modeling and microarray screening. […] (f) Scatter plot of the sequence likelihood (normalized by length, higher is better) against fluorescence level (higher is better, see Methods for details of the data analysis). […]
Decide using Chip Fluorescence (mean): a value greater than or equal to 0.1 is Met, a smaller one is Not met.

Field: example entries. Status: answers known.
QAVMCTAMSWCDCGQR [SeqRBM_6860]    Met
DAHACAVLGIGSFSLL [SeqRBM_9753]    Not met
RNPERPKLHLQGHLVA [SeqRBM_9016]    Not met
SQFDQVHYGLHIATFH [Seqshuffled_4372]    Met
TFWTNPQYRLKLEEVD [SeqRBMlowT_1143]    Met

Hi, just wondering whether RAYINPFMQFTDGGRR [SeqRBMlowT_4069] shows Chip Fluorescence (mean) of 0.1 or higher.
Met

Please do the same for TFWTNPQYKITLEEPD [SeqRBMlowT_54] as well.
Not met

Please do the same for GLCDSSKVNLVDAGPV [Seqshuffled_9731] as well.
Met

Please do the same for TFWTNPQYRLNIIDPD [SeqRBMlowT_94] as well.
Not met

Please do the same for LKDEFPDVRLHIISKL [SeqRCN1_Arthroderma_otae] as well.
Met

Please do the same for RNPGSPTLELNGHSGG [SeqRBM_9695] as well.
Not met

Please do the same for PKMAPPCINIDFAPTN [SeqRBMlowT_319] as well.
Not met

Please do the same for STSSLPTFSFSSLAPS [SeqRBMlowT_2354] as well.
Not met

----------
Tested on: GST-tagged Cn
Experiment: PEPperPRINT peptide microarray binding assay with GST-tagged Cn
Conditions: mean over the spots listed under Location on chip
value.kind: Chip Fluorescence (mean)
Number only, please.

GSMLVPAINIDYAPTN [SeqRBMlowT_5048]    1.025

If you can, please state the reported Chip Fluorescence (mean) value of RTYINPFMQFTDGGRF [SeqRBMlowT_552] .
0.5553

Please do the same for PSLYENALGIESFTLS [SeqRBMlowT_6913] as well.
0.4149

Please do the same for NICTSLTLVETDPTVY [Seqshuffled_9501] as well.
1.69

Please do the same for AGCTVNNYSTNFAEND [Seqshuffled_9821] as well.
0.6288

Please do the same for RAYINPFMTFTDGGRR [SeqRBMlowT_3400] as well.
0.978

Please do the same for SPSNPPEIIISSREDN [SeqKCNN2_Mus_musculus] as well.
0.7018

Please do the same for NMATVPAVTMGEVART [SeqRBM_5293] as well.
-0.7897

Please do the same for VETIRPGVVTEPMEAG [SeqRBM_4600] as well.
1.278

----------
Test system: GST-tagged Cn
Test: PEPperPRINT peptide microarray binding assay with GST-tagged Cn
Conditions: GST-tagged Cn, mean over the spots named in Location on chip
Classify: yes when Chip Fluorescence (mean) is strictly less than 0.4; no when Chip Fluorescence (mean) is not.

Field: example entries. Status: answers known.
SLDEEPGISINEKPVG [Seqshuffled_9948]    no
KKMAPPCINIDFAPEN [SeqRBMlowT_2474]    yes

Say whether its Chip Fluorescence (mean) is strictly beneath 0.4. Entry: PSLYENALGMEAFTIS [SeqRBMlowT_4846]
no

Please do the same for GAPGTPSRWGTPLAPS [SeqRBM_851] as well.
no

Please do the same for DTYGTASLARELPSPK [Seqshuffled_9914] as well.
no

Please do the same for STSSLPTFSFSPPAPS [SeqRBMlowT_2355] as well.
yes

Please do the same for KKMAPPCINIDPAPTN [SeqRBMlowT_309] as well.
yes

Please do the same for PNLYENTLGIEQFTLS [SeqRBM_7749] as well.
yes

Please do the same for PQPSVQSAEFMEFVGH [Seqshuffled_8788] as well.
no

Please do the same for LGRMSPQSTTQALPST [Seqshuffled_9332] as well.
yes
